Consider the following compounds; for each one, report its TGI.
# Tested on: XF 498 CNS
# testDescription: NCI tumour cell line growth inhibition, 48 h

QUERY: Notebook entry, XF 498 CNS assay: TGI of CN(C)CCOc1cc2c(c3ccccc13)-c1ccccc1C2=O = ?
RESULT: 3.28 µM

QUERY: Recall the recorded TGI for CCC[CH2][Sn]1([CH2]CCC)[O]C(c2ccccn2)S(=O)(=O)[O]1 (centres undefined) with XF 498 CNS and state it.
RESULT: 3.55 µM

QUERY: Value wanted: TGI (XF 498 CNS) of entry Cc1cc(N(CCC#N)CCC#N)ccc1/C=C1/CN(N2C(=O)/C(=C/c3ccc(N(CCC#N)CCC#N)cc3C)N=C2c2ccccc2)C(c2ccccc2)=N1
RESULT: > 100 µM

QUERY: What value of TGI on XF 498 CNS does CCCC(OCC)(OCC)OCC have?
RESULT: > 100 µM

====

# Tested on: U251 CNS
# testDescription: NCI tumour cell line growth inhibition, 48 h
Can you tell me TGI for the items I'm about to list?

QUERY: Query: TGI; subject: CC1OC(OC2C(OC(=O)[C@]34CCC(C)(C)C[C@H]3C3=CC[C@@H]5[C@@]6(C)CC[C@H](OC7OC(C(=O)O)C(O)C(O)C7O)C(C)(C)[C@@H]6CC[C@@]5(C)[C@]3(C)CC4)OCC(O)C2O)C(O)C(O)C1OC1OCC(O)C(O)C1O (some centres undefined)
RESULT: > 100 µM

QUERY: So what does the record say about TGI for CS(=O)(=O)c1ccc(N/N=C/c2c(-c3ccc(S(C)(=O)=O)cc3)[nH]c3ccc(F)cc23)cc1 ?
RESULT: > 50 µM

QUERY: Consider the molecule C/C(=N\O)c1sc(-n2nc(-c3ccccc3)cc2-c2ccccc2)nc1C and give its measured TGI.
RESULT: 16.3 µM

QUERY: Suppose we examine the molecule CCOC(=O)[C@H](CSSc1ncnc2cc[nH]c12)NC(=O)[C@@H](C)c1ccc2cc(OC)ccc2c1 ; what TGI value has been reported?
RESULT: > 100 µM

QUERY: Which TGI is listed for Cc1cc(Cl)ccc1Nc1sc(C(=O)c2cc3cc(Cl)ccc3o2)c(N)c1C#N ?
RESULT: 16.2 µM

QUERY: Fill blank: measured TGI of the molecule O=C(NNC(=S)Nc1ccccc1)C12CC3CC(CC(C3)C1)C2 is ____.
RESULT: > 100 µM

QUERY: # TGI lookup, item CC1(C)CCC(=O)c2c(O)ccc(O)c21
RESULT: > 100 µM

QUERY: Requested read-out: TGI. Entry: O=C(OCc1ccccc1)N1CCNCCNCC1
RESULT: > 100 µM

QUERY: Would you kindly share the measured TGI for CCOC(=O)c1sc2nc(SC)nc(Nc3ccc4c(c3)OCCCO4)c2c1N ?
RESULT: > 100 µM

====

# System: MDA-N
# testDescription: NCI tumour cell line growth inhibition, 48 h
measure: TGI (µM)
Just the number in µM, nothing appended.

QUERY: Sample O=C(NO)c1cccc(OCc2ccc(Br)cc2)c1 — what was its TGI?
RESULT: 27.5

QUERY: # lookup: TGI of CC(=O)[O-].CC(=O)[O-].[Mn+2].c1ccc(/C(=N\Nc2ccccn2)c2ccccn2)cc1
RESULT: 22.5

QUERY: Form field: reported TGI of CC(=O)O[C@H]1CC[C@H]2[C@@H]3CCc4cc(O)c(I)cc4[C@H]3CC[C@]12C
RESULT: 31.3

QUERY: Given the entry CC(C)[Si](OC12CCC(CC1O)CC2C(=O)O)(C(C)C)C(C)C (centres undefined) , report its measured TGI.
RESULT: 39.7

QUERY: What TGI value was documented for this compound, Cc1cc(N(CCOS(C)(=O)=O)CCOS(C)(=O)=O)ccc1C=Nc1ccc(-c2csc(-c3ccccc3)n2)c(Cl)c1 ?
RESULT: 23.1

QUERY: What value of TGI has been reported for the following compound? CC(C)(C)CN1[C@@H]2CCCC[C@H]2N(CC(C)(C)C)P1(=O)Cc1ccccc1
RESULT: 28.4

====

Give measured TGI for each item. Keep answers brief.
# System: SNB-75 CNS
# testDescription: NCI tumour cell line growth inhibition, 48 h

QUERY: Entry CN1CCC23c4c5ccc(O)c4OC2C(=NN=C2CCC4(O)C6Cc7ccc(O)c8c7C4(CCN6C)C2O8)CCC3(O)C1C5 (stereo not drawn) : reported TGI = ?
RESULT: > 100 µM

QUERY: Look at this compound and give its reported TGI. CCN1C(C)=NC2C(=O)c3ccccc3C(=O)C21 (stereo not drawn)
RESULT: > 100 µM

QUERY: What measured TGI goes with COc1ccc(-c2coc3ncnc(N)c23)cc1 ?
RESULT: > 25 µM

====

# Tested on: HOP-92 NSCLC
# testDescription: NCI tumour cell line growth inhibition, 48 h
measure: TGI

QUERY: Item CON(C)C(=O)C(Cc1ccccc1)NC(=O)OC(C)(C)C (stereo not drawn) has what recorded TGI?
RESULT: > 100 µM

QUERY: Any idea what TGI was measured for Cc1ccc2c(c1)C(=O)/C(=C1/CCc3ccc(C)cc31)C2 ?
RESULT: > 100 µM

QUERY: What value of TGI has been reported for the following compound? C=C1C(=O)O[C@@H]2[C@H]1CC[C@H](C)[C@]1(O)CCC(=O)[C@@]21C
RESULT: > 10 µM

====

# System: SNB-75 CNS
# testDescription: NCI tumour cell line growth inhibition, 48 h
measure: TGI

QUERY: Given C[C@]12CCC[C@H](OC=O)C1(O)C[C@H](C(=O)O)CC2 (stereo partly drawn) , state its recorded TGI.
RESULT: > 100 µM

QUERY: Returns the measured TGI for the input compound. Input: CCc1ccccc1NC(=O)/C(CC(=O)c1c(C)n([O-])c2ccccc2[n+]1=O)=N\NS(=O)(=O)c1ccc(C)cc1
RESULT: > 100 µM

QUERY: Entry under review: Nc1nc(N)c2nc(CNc3ccc(C(=O)CC(CCC(=O)O)C(=O)O)cc3)cnc2n1 (stereo not drawn) . Reported TGI?
RESULT: > 100 µM

====

# System: TK-10 renal
# testDescription: NCI tumour cell line growth inhibition, 48 h
I'd be grateful if you could share measured log10(TGI) for these entries.
Please interpret these as log10 of TGI where TGI is in µM.

QUERY: Can you share its log10(TGI)? I mean this compound: CCCCCCCCCCCCCOC(=O)c1c(C)[nH]c(/C=C2\N=C(c3ccc[nH]3)C=C2OC)c1C
RESULT: 1.30

QUERY: Recorded log10(TGI) for Nc1ncc(-c2cnn(C3CCNCC3)c2)cc1-c1nc2ccccc2o1 , please?
RESULT: 0.61

QUERY: I'd like to know its log10(TGI). The compound in question is CCCCCCN(CCCCCC)C(=N)c1ccnc2ccccc12
RESULT: 0.99

QUERY: // log10(TGI) lookup, key: CCC[CH2][Sn]1([CH2]CCC)[O]C(c2ccccn2)S(=O)(=O)[O]1 (stereo not drawn)
RESULT: 0.77

QUERY: Look up log10(TGI) for this compound: O=c1ncc(-c2ccc(C(F)(F)F)cc2)c(NC2CCCCCC2)[nH]1
RESULT: 1.87

QUERY: Consider the compound O=C1C=C(Nc2ccccc2)c2ncccc2C1=O and give its measured log10(TGI).
RESULT: 0.52

====

# Tested on: HCC-2998 colon
# testDescription: NCI tumour cell line growth inhibition, 48 h
Kindly supply the reported TGI values for the records listed here.

QUERY: Any idea what its TGI is? The compound is COc1cccc2c1C(=O)C(=O)c1c-2oc(=O)c2cc(C)cc(OC)c12
RESULT: 37.6 µM

QUERY: Give its TGI value. Item: CON(C)C(=O)C(Cc1ccccc1)NC(=O)OC(C)(C)C (stereo unspecified)
RESULT: > 100 µM

QUERY: Please give the measured TGI for this compound: CCOC(=O)C1Cc2c(ccc(OC)c2OC)C(=O)C1N (stereo unspecified)
RESULT: > 100 µM

QUERY: Using the record for CC(C)(C)CN1[C@@H]2CCCC[C@H]2N(CC(C)(C)C)P1(=O)Cc1ccccc1 , report its TGI.
RESULT: 21.2 µM

QUERY: Any idea what TGI was measured for N#Cc1c(C#N)c(-c2cccc([N+](=O)[O-])c2)n(-c2ccccc2)c1N ?
RESULT: > 100 µM

QUERY: State the recorded TGI for this entry: c1ccc(COCC23CCN(Cc4ccccc4)C(CC(OCc4ccccc4)C2)S3)cc1 (stereo unspecified)
RESULT: > 100 µM

QUERY: Entry under review: COc1cc(-c2c[nH]c3ccccc23)nc(-c2c[nH]c3ccccc23)n1 . Reported TGI?
RESULT: 13 µM

QUERY: I am curious: what TGI value has been reported for CC(=O)OCc1nc(C#N)c(N)o1 ?
RESULT: > 100 µM

QUERY: I have this compound here, Cc1cc(C)c2c(=O)cc(-c3ccc(Cl)cc3)[nH]c2n1 , and I need its recorded TGI.
RESULT: > 100 µM

QUERY: What value of TGI has been reported for the following compound? Cc1nnc(Nc2ccc(Cl)cc2)o1
RESULT: > 10 µM

QUERY: I have this compound here, C=C(Cl)C(C)(Cl)CCC(Cl)C(C)(C)Cl (stereo unspecified) , and I need its recorded TGI.
RESULT: > 100 µM

QUERY: Item [N-]=[N+]=NC1(N=[N+]=[N-])C(=O)NN=C(c2ccccc2)C1=O (stereo unspecified) has what recorded TGI?
RESULT: > 100 µM

QUERY: Could you share which TGI value was measured for COC(=O)[C@@H]1O[C@]12C(CO[Si](C)(C)C(C)(C)C)OC(n1ccc(=O)[nH]c1=O)C2O[Si](C)(C)C(C)(C)C (stereo partly specified) ?
RESULT: > 100 µM

QUERY: Need TGI of CC(=O)N1NC(c2ccccc2)=CC(=O)/C1=C/C(=O)c1ccccc1 , thanks.
RESULT: > 100 µM

QUERY: If you can, please state the reported TGI value of CC1(C)SC2C(C(=O)O)N=C(Cc3ccccc3)N2C1C(=O)O (stereo unspecified) .
RESULT: 56.9 µM

QUERY: Quick one: TGI for C=C1C(=O)O[C@@H]2[C@H]1CC[C@H](C)[C@]1(O)CCC(=O)[C@@]21C ?
RESULT: > 10 µM
